Measured values drawn from ChEMBL document CHEMBL1157525 for this set.

# experimental_system: RAC-beta serine/threonine-protein kinase (Homo sapiens, UniProt P31751)
# Sequence (P31751 whole entry): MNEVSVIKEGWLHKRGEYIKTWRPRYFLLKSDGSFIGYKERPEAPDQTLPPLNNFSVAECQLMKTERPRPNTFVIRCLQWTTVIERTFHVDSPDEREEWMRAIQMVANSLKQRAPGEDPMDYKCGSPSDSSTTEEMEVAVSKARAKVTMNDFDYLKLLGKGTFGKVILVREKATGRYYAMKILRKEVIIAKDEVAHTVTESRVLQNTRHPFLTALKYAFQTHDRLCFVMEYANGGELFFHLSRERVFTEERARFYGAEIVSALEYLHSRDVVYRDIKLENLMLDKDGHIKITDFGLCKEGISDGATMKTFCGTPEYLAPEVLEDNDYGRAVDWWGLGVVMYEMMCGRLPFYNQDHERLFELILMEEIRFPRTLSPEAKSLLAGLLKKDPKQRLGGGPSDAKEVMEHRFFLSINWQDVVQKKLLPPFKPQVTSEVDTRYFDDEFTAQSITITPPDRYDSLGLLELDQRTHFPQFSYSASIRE
# assay: Inhibition of Akt2 by cellular assay
endpoint_label: IC50

1) CN1CCN(c2ccc3nc(-c4ccc(CN5CCC(c6nnc(-c7ccccn7)[nH]6)CC5)cc4)c(-c4ccccc4)nc3n2)CC1: 827 nM
2) CN1CCN(c2ncc3cc(-c4ccccc4)c(-c4ccc(CN5CCC(c6nnc(-c7ccc(N)nc7)[nH]6)CC5)cc4)nc3n2)CC1: 84 nM
3) COc1ccc(-c2nnc(C3CCN(Cc4ccc(-c5nc6cc[nH]c(=O)c6cc5-c5ccccc5)cc4)CC3)[nH]2)cn1: 159 nM
4) CN1CCN(c2ncc3cc(-c4ccccc4)c(-c4ccc(CN5CCC(c6nnc(-c7cc[n+]([O-])cc7)[nH]6)CC5)cc4)nc3n2)CC1: 185 nM
5) Nc1ccc(-c2nnc(C3CCN(Cc4ccc(-c5nc6nc(N7CCN(CCO)CC7)ccc6nc5-c5ccccc5)cc4)CC3)[nH]2)cn1: 230 nM
6) CN1CCN(c2ncc3cc(-c4ccccc4)c(-c4ccc(CN5CCC(c6nnc(-c7ncccn7)[nH]6)CC5)cc4)nc3n2)CC1: 40 nM
7) CN(C)CCN1CCN(c2ncc3cc(-c4ccccc4)c(-c4ccc(CN5CCC(c6nnc(-c7ccc(N)nc7)[nH]6)CC5)cc4)nc3n2)CC1: 140 nM

----------
# experimental_system: RAC-beta serine/threonine-protein kinase (Homo sapiens, UniProt P31751)
# assay: Inhibition of Akt2 by cellular assay
Some compounds, each annotated with its measured IC50.
endpoint_label: IC50

1) Nc1ccc(-c2nnc(C3CCN(Cc4ccc(-c5nc6nc(N7CCN(CCO)CC7)ncc6cc5-c5ccccc5)cc4)CC3)[nH]2)cn1: 180 nM
2) CN1CCN(c2ccc3nc(-c4ccccc4)c(-c4ccc(CN5CCC(c6nnc(-c7ccccn7)[nH]6)CC5)cc4)nc3n2)CC1: 92 nM
3) CN(C)CCN1CCN(c2ncc3cc(-c4ccccc4)c(-c4ccc(CN5CCC(c6nnc(-c7ncccn7)[nH]6)CC5)cc4)nc3n2)CC1: 130 nM

----------
# experimental_system: RAC-beta serine/threonine-protein kinase (Homo sapiens, UniProt P31751)
# assay: Inhibition of Akt2 by cellular assay
pIC50: −log10 of the molar value.
Some compounds, each annotated with its measured pIC50.
endpoint_label: pIC50

1. [O-][n+]1ccc(-c2nnc(C3CCN(Cc4ccc(-c5nc6nc(N7CCN(CCO)CC7)ncc6cc5-c5ccccc5)cc4)CC3)[nH]2)cc1: 6.84
2. OCCN1CCN(c2ccc3nc(-c4ccccc4)c(-c4ccc(CN5CCC(c6nc(-c7ncccn7)n[nH]6)CC5)cc4)nc3n2)CC1: 6.72
3. CN(C)CCN1CCN(c2ncc3cc(-c4ccccc4)c(-c4ccc(CN5CCC(c6nnc(-c7cc[n+]([O-])cc7)[nH]6)CC5)cc4)nc3n2)CC1: 7.17
4. O=c1[nH]ccc2nc(-c3ccc(CN4CCC(c5nnc(-c6cnccn6)[nH]5)CC4)cc3)c(-c3ccccc3)cc12: 6.39
5. OCCN1CCN(c2ccc3nc(-c4ccccc4)c(-c4ccc(CN5CCC(c6nnc(-c7ccccn7)[nH]6)CC5)cc4)nc3n2)CC1: 7.32
6. CN(C)CCN1CCN(c2ccc3nc(-c4ccccc4)c(-c4ccc(CN5CCC(c6nnc(-c7ccccn7)[nH]6)CC5)cc4)nc3n2)CC1: 7.37
7. CN1CCN(c2ccc3nc(-c4ccccc4)c(-c4ccc(CN5CCC(c6nnc(-c7ccc(N)nc7)[nH]6)CC5)cc4)nc3n2)CC1: 6.65

----------
Some molecules, each annotated with its measured pIC50.
# experimental_system: RAC-beta serine/threonine-protein kinase (Homo sapiens)
# assay: Inhibition of Akt2 by cellular assay
pIC50: −log10 of the molar value.
endpoint_label: pIC50

1) O=c1ccc(-c2nnc(C3CCN(Cc4ccc(-c5nc6cc[nH]c(=O)c6cc5-c5ccccc5)cc4)CC3)[nH]2)c[nH]1: 6.55
2) CN1CCN(c2ncc3cc(-c4ccccc4)c(-c4ccc(CN5CCC(c6nnc(-c7ccc(=O)[nH]c7)[nH]6)CC5)cc4)nc3n2)CC1: 6.73
3) CN(C)CCN1CCN(c2ncc3cc(-c4ccccc4)c(-c4ccc(CN5CCC(c6nnc(-c7ccccn7)[nH]6)CC5)cc4)nc3n2)CC1: 7.41
4) O=c1[nH]ccc2nc(-c3ccc(CN4CCC(c5nnc(-c6ncccn6)[nH]5)CC4)cc3)c(-c3ccccc3)cc12: 7.16
5) CN(C)CCN1CCN(c2ccc3nc(-c4ccccc4)c(-c4ccc(CN5CCC(c6nc(-c7ncccn7)n[nH]6)CC5)cc4)nc3n2)CC1: 6.94
6) OCCN1CCN(c2ncc3cc(-c4ccccc4)c(-c4ccc(CN5CCC(c6nc(-c7ncccn7)n[nH]6)CC5)cc4)nc3n2)CC1: 7.10
7) O=C1NCCc2nc(-c3ccc(CN4CCC(c5nnc(-c6ccccn6)[nH]5)CC4)cc3)c(-c3ccccc3)cc21: 6.65

----------
# experimental_system: Voltage-gated inwardly rectifying potassium channel KCNH2 (Homo sapiens, UniProt Q12809)
# Sequence (Q12809 whole entry): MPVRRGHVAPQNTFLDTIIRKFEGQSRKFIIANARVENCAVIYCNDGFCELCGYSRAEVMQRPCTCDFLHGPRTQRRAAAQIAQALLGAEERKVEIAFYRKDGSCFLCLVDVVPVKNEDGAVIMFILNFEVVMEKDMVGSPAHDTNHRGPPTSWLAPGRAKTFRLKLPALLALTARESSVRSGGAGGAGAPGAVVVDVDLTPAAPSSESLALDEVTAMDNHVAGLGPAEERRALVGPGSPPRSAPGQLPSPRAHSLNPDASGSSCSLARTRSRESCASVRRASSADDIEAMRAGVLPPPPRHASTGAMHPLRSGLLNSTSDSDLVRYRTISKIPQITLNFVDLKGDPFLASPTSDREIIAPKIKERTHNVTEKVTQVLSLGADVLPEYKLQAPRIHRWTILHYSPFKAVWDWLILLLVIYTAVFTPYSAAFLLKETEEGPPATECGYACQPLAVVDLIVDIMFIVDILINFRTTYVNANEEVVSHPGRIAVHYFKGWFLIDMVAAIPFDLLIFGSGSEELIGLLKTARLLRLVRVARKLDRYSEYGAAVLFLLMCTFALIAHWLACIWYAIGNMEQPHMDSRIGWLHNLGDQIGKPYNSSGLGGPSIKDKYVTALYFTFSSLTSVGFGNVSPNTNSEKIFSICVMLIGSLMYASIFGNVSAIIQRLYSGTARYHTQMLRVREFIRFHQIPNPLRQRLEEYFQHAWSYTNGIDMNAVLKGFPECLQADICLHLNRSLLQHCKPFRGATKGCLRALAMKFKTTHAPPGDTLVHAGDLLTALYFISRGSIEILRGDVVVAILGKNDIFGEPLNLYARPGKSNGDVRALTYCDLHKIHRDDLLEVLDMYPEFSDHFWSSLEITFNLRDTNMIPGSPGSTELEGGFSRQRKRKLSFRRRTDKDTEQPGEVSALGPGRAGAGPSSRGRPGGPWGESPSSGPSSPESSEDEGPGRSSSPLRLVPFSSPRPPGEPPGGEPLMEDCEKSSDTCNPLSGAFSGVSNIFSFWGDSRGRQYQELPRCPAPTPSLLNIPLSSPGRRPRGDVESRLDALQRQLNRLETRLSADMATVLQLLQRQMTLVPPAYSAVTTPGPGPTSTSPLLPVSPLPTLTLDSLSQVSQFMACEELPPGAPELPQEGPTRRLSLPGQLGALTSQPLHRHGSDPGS
# assay: Inhibition of human ERG in embryonic kidney cells by radioligand-binding competition assay
Some compounds, each annotated with its measured IC50.
endpoint_label: IC50 (µM)

1. CN1CCN(c2ncc3cc(-c4ccccc4)c(-c4ccc(CN5CCC(c6nnc(-c7ccc(N)nc7)[nH]6)CC5)cc4)nc3n2)CC1: 6.1
2. CN(C)CCN1CCN(c2ncc3cc(-c4ccccc4)c(-c4ccc(CN5CCC(c6nnc(-c7ncccn7)[nH]6)CC5)cc4)nc3n2)CC1: 4.8
3. CN(C)CCN1CCN(c2ncc3cc(-c4ccccc4)c(-c4ccc(CN5CCC(c6nnc(-c7cc[n+]([O-])cc7)[nH]6)CC5)cc4)nc3n2)CC1: 7.9
4. CN(C)CCN1CCN(c2ncc3cc(-c4ccccc4)c(-c4ccc(CN5CCC(c6nnc(-c7ccc(=O)[nH]c7)[nH]6)CC5)cc4)nc3n2)CC1: 0.8

----------
# experimental_system: Voltage-gated inwardly rectifying potassium channel KCNH2 (Homo sapiens, UniProt Q12809)
# assay: Inhibition of human ERG in embryonic kidney cells by radioligand-binding competition assay
IC50 under 7 µM gets T, anything at or over 7 µM gets F.

1. COc1ccc(-c2nnc(C3CCN(Cc4ccc(-c5nc6cc[nH]c(=O)c6cc5-c5ccccc5)cc4)CC3)[nH]2)cn1: T
2. CN1CCN(c2ncc3cc(-c4ccccc4)c(-c4ccc(CN5CCC(c6nnc(-c7cc[n+]([O-])cc7)[nH]6)CC5)cc4)nc3n2)CC1: F
3. Nc1ccc(-c2nnc(C3CCN(Cc4ccc(-c5nc6cc[nH]c(=O)c6cc5-c5ccccc5)cc4)CC3)[nH]2)cn1: F
4. O=c1[nH]ccc2nc(-c3ccc(CN4CCC(c5nnc(-c6ncccn6)[nH]5)CC4)cc3)c(-c3ccccc3)cc12: F
5. CN(C)CCN1CCN(c2ncc3cc(-c4ccccc4)c(-c4ccc(CN5CCC(c6nnc(-c7ccccn7)[nH]6)CC5)cc4)nc3n2)CC1: T
6. O=C1NCCc2nc(-c3ccc(CN4CCC(c5nnc(-c6ccccn6)[nH]5)CC4)cc3)c(-c3ccccc3)cc21: T

----------
# experimental_system: RAC-alpha serine/threonine-protein kinase (Homo sapiens, UniProt P31749)
# Sequence (P31749 whole entry): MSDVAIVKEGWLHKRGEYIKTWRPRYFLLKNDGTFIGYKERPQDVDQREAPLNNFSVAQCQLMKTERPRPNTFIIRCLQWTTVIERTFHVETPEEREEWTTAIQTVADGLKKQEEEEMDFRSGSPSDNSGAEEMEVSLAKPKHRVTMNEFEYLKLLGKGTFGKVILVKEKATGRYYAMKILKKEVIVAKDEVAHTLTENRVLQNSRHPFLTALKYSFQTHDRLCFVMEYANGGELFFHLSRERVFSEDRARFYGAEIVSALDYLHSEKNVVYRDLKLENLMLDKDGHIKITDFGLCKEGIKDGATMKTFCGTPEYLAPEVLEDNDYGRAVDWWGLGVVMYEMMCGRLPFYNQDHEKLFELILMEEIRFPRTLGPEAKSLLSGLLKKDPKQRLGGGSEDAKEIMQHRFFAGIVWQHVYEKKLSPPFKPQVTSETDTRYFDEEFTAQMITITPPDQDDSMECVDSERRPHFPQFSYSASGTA
# assay: Inhibition of Akt1 by cellular assay
Categories are defined by ranges of IC50, namely low class = under 30 nM, middle class = from 30 nM up to 70 nM, high class = 70 nM and over

1) O=C1NCCc2nc(-c3ccc(CN4CCC(c5nnc(-c6ccccn6)[nH]5)CC4)cc3)c(-c3ccccc3)cc21: low class
2) O=c1ccc(-c2nnc(C3CCN(Cc4ccc(-c5nc6cc[nH]c(=O)c6cc5-c5ccccc5)cc4)CC3)[nH]2)c[nH]1: middle class
3) O=c1[nH]ccc2nc(-c3ccc(CN4CCC(c5nnc(-c6ncccn6)[nH]5)CC4)cc3)c(-c3ccccc3)cc12: low class
4) CN1CCN(c2ncc3cc(-c4ccccc4)c(-c4ccc(CN5CCC(c6nnc(-c7ncccn7)[nH]6)CC5)cc4)nc3n2)CC1: low class
5) CN1CCN(c2ncc3cc(-c4ccccc4)c(-c4ccc(CN5CCC(c6nnc(-c7cc[n+]([O-])cc7)[nH]6)CC5)cc4)nc3n2)CC1: high class
6) OCCN1CCN(c2ncc3cc(-c4ccccc4)c(-c4ccc(CN5CCC(c6nc(-c7ncccn7)n[nH]6)CC5)cc4)nc3n2)CC1: middle class
7) CN1CCN(c2ccc3nc(-c4ccccc4)c(-c4ccc(CN5CCC(c6nnc(-c7ccccn7)[nH]6)CC5)cc4)nc3n2)CC1: low class
8) CN1CCN(c2ncc3cc(-c4ccccc4)c(-c4ccc(CN5CCC(c6nnc(-c7ccc(N)nc7)[nH]6)CC5)cc4)nc3n2)CC1: low class
9) [O-][n+]1ccc(-c2nnc(C3CCN(Cc4ccc(-c5nc6nc(N7CCN(CCO)CC7)ncc6cc5-c5ccccc5)cc4)CC3)[nH]2)cc1: middle class
10) CN(C)CCN1CCN(c2ncc3cc(-c4ccccc4)c(-c4ccc(CN5CCC(c6nnc(-c7ccc(N)nc7)[nH]6)CC5)cc4)nc3n2)CC1: middle class
11) O=c1[nH]ccc2nc(-c3ccc(CN4CCC(c5nnc(-c6cnccn6)[nH]5)CC4)cc3)c(-c3ccccc3)cc12: middle class
12) CN(C)CCN1CCN(c2ncc3cc(-c4ccccc4)c(-c4ccc(CN5CCC(c6nnc(-c7ncccn7)[nH]6)CC5)cc4)nc3n2)CC1: middle class
13) CN(C)CCN1CCN(c2ccc3nc(-c4ccccc4)c(-c4ccc(CN5CCC(c6nc(-c7ncccn7)n[nH]6)CC5)cc4)nc3n2)CC1: high class
14) CN(C)CCN1CCN(c2ncc3cc(-c4ccccc4)c(-c4ccc(CN5CCC(c6nnc(-c7ccccn7)[nH]6)CC5)cc4)nc3n2)CC1: low class
15) O=c1ccc(-c2nnc(C3CCN(Cc4ccc(-c5nc6nc(N7CCN(CCO)CC7)ncc6cc5-c5ccccc5)cc4)CC3)[nH]2)c[nH]1: high class
16) CN(C)CCN1CCN(c2ccc3nc(-c4ccccc4)c(-c4ccc(CN5CCC(c6nnc(-c7ccccn7)[nH]6)CC5)cc4)nc3n2)CC1: low class
17) OCCN1CCN(c2ccc3nc(-c4ccccc4)c(-c4ccc(CN5CCC(c6nnc(-c7ccccn7)[nH]6)CC5)cc4)nc3n2)CC1: low class
18) Nc1ccc(-c2nnc(C3CCN(Cc4ccc(-c5nc6nc(N7CCN(CCO)CC7)ncc6cc5-c5ccccc5)cc4)CC3)[nH]2)cn1: middle class
19) CN(C)CCN1CCN(c2ncc3cc(-c4ccccc4)c(-c4ccc(CN5CCC(c6nnc(-c7cc[n+]([O-])cc7)[nH]6)CC5)cc4)nc3n2)CC1: middle class
20) CN1CCN(c2ccc3nc(-c4ccccc4)c(-c4ccc(CN5CCC(c6nnc(-c7ncccn7)[nH]6)CC5)cc4)nc3n2)CC1: middle class
21) Nc1ccc(-c2nnc(C3CCN(Cc4ccc(-c5nc6nc(N7CCN(CCO)CC7)ccc6nc5-c5ccccc5)cc4)CC3)[nH]2)cn1: high class
22) Nc1ccc(-c2nnc(C3CCN(Cc4ccc(-c5nc6cc[nH]c(=O)c6cc5-c5ccccc5)cc4)CC3)[nH]2)cn1: low class
23) COc1ccc(-c2nnc(C3CCN(Cc4ccc(-c5nc6cc[nH]c(=O)c6cc5-c5ccccc5)cc4)CC3)[nH]2)cn1: middle class
24) CN1CCN(c2ccc3nc(-c4ccc(CN5CCC(c6nnc(-c7ccccn7)[nH]6)CC5)cc4)c(-c4ccccc4)nc3n2)CC1: high class
